# Tested on: neonatal rat ventricular myocytes (NRVMs)
# Measurement description: Myocyte proliferation assay (EdU) in neonatal rat ventricular myocytes
# Format: cell-based
# Condition notes: Rattus norvegicus, Ventricular myocyte; 1 uM compound; growth relative to blank myocyte growth without compound added
Measurement name: activation at 1 µM

O=C1NC(Nc2ccccc2)=N/C1=C\c1ccc2c(c1)OCO2 [Example L41] ... < 10%

Now for a further compound.
Find activation at 1 µM (neonatal rat ventricular myocytes (NRVMs)) for the entry O=C1NC(C2CC2)=N/C1=C\c1ccc2c(c1)OCO2 [TJU-B059]
< 10%

###

# Tested on: human GSK3 beta (Homo sapiens, UniProt P49841)
# Construct: Recombinant full-length human GSK3 beta (expressed in Sf9 insect cells with an N-terminal His tag); His tag (N); purchased SignalChem G09-10H; host or cells: Sf9 insect cells
# Sequence (P49841 whole entry): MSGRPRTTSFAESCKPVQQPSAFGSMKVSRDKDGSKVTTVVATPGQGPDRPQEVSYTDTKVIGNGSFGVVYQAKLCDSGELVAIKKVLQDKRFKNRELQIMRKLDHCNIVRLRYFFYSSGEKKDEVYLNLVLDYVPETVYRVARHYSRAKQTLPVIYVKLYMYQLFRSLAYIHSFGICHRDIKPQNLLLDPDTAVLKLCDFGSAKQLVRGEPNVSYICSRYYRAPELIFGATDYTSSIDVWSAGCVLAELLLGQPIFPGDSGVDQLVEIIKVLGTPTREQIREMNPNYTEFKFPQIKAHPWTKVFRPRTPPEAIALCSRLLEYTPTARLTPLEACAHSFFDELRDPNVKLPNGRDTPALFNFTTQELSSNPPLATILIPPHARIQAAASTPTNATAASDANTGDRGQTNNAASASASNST
# Measurement description: GSK3 beta enzyme assay (ADP-Glo)
# Assay type: biochemical
# Experimental: 1. GSK3 Beta Enzyme Assay The ability of compounds to inhibit human GSK3 beta kinase activities was determined using a commercially available ADP-Glo™ Kinase Assay kit (Promega, Cat #V9102) according to the manufacturer's protocol. The ADP-Glo™ Kinase Assay is a luminescent ADP detection assay that provides a universal, homogeneous, high-throughput screening method to measure kinase activity by quantifying the amount of ADP produced during a kinase reaction. […]
Measurement name: IC50

Quick one: IC50 for CC(=O)N(C1=N/C(=C\c2ccc3c(c2)OCO3)C(=O)N1)c1ccccc1 [TJU-B183] ?
> 10 µM

###

// activation at 1 µM lookup, one value per entry
# Tested on: neonatal rat ventricular myocytes (NRVMs)
# Measurement description: Myocyte proliferation assay (EdU) in neonatal rat ventricular myocytes
# Format: cell-based
# Condition notes: Rattus norvegicus, Ventricular myocyte; 1 uM compound; growth relative to blank myocyte growth without compound added

# annotated cases, reported activation at 1 µM shown
CN1C(=O)/C(=C/c2ccc(F)cc2)N=C1N ... < 10%
COc1cccc(/C=C2\N=C(N)N(C)C2=O)c1 ... 10 to 50%
O=C1NC(Nc2ccc3c(c2)OCO3)=N/C1=C\c1ccc2c(c1)OCO2 ... < 10%
NC1=N/C(=C\c2ccc3c(c2)OCO3)C(=O)N1 ... < 10%
O=C1NC(Nc2ccccc2)=NC1Cc1ccc2c(c1)OCO2 (centres unmarked) ... 10 to 50%

Quick one: activation at 1 µM for COc1ccccc1NC1=N/C(=C\c2ccc3c(c2)OCO3)C(=O)N1 ?
< 10%

Quick one: activation at 1 µM for CN1C(=O)/C(=C/c2ccc3c(c2)OCO3)N=C1N(C)c1ccccc1 ?
< 10%

###

// activation at 1 µM lookup, one value per entry
# Test system: neonatal rat ventricular myocytes (NRVMs)
# Measurement description: Myocyte proliferation assay (EdU) in neonatal rat ventricular myocytes
# Format: cell-based
# Condition notes: Rattus norvegicus, Ventricular myocyte; 1 uM compound; growth relative to blank myocyte growth without compound added

# annotated cases, reported activation at 1 µM shown
CN1C(=O)/C(=C/c2ccc3c(c2)OCO3)N=C1Nc1ccc2c(c1)OCO2 ... 10 to 50%
C/C(=C1/N=C(Nc2ccccc2)NC1=O)c1ccc2c(c1)OCO2 ... < 10%
CN1C(=O)/C(=C/c2ccc3c(c2)OCO3)N=C1NCC1CC1 ... 10 to 50%
O=C1NC(NCCN2CCOCC2)=N/C1=C\c1ccc2c(c1)OCO2 ... < 10%
CC(C)NC1=N/C(=C\c2ccc3c(c2)OCO3)C(=O)N1 ... 10 to 50%

Quick one: activation at 1 µM for O=C1NC(Nc2cccnc2)=N/C1=C\c1ccc2c(c1)OCO2 ?
< 10%

Quick one: activation at 1 µM for CN1C(=O)/C(=C/c2ccc3c(c2)OCO3)N=C1N ?
10 to 50%

Quick one: activation at 1 µM for O=C1NC(Nc2ccccc2)=N/C1=C\c1ccc2c(c1)OCO2 [TJU-B043] ?
10 to 50%
